Where these numbers come from: ChEMBL document CHEMBL1131869

# CC50 values compiled below
# Tested on: Human betaherpesvirus 5
# RUN DESCRIPTION: Cytotoxicity against Human cytomegalovirus (AD169) strain(HCMV)
# Assay type: functional

O=C1c2ccccc2N(Cc2ccccc2Cl)S(=O)(=O)N1Cc1ccccc1Cl
> 60 µM
O=S1(=O)N=C(OCc2ccccc2)c2ccccc2N1Cc1ccccc1
> 66 µM
O=C1c2ccccc2N(Cc2cccc(Cl)c2)S(=O)(=O)N1Cc1ccccc1
> 60 µM
Nc1nc2c(ncn2COC(CO)CO)c(=O)[nH]1 [GANCICLOVIR]
> 98 µM
O=C1c2ccccc2N(Cc2ccccc2Cl)S(=O)(=O)N1COCc1ccccc1
> 56 µM

Req: If you can, please state the reported CC50 value of "O=C1c2ccccc2N(Cc2ccc(Cl)cc2)S(=O)(=O)N1Cc1ccc(Cl)cc1" .
Resp: > 60 µM

Req: Given the molecule "O=C1c2ccccc2N(Cc2ccccc2)S(=O)(=O)N1Cc1ccc(Cl)cc1" , what is its reported CC50?
Resp: > 60 µM
